Data origin: the supplement of paper PMC11451515

Tested on: NOMO1
METHOD_SUMMARY: AUC of viability dose-response curve (% viability x log10 dose units); higher = less sensitive
EXPERIMENTAL_CONTEXT: RPMI 5 mM glucose + 10% FBS; 48 h
Each item that follows carries a reported AUC of viability dose-response curve.
Respond with the number and no other words.

Solved entries (count: 4):
| COMPOUND | TEST_TARGET | OBSERVABLE | ENDPOINT_RESULT |
| --- | --- | --- | --- |
| CC(C)(C)NC(=O)[C@H]1CC[C@H]2[C@@H]3CC[C@H]4NC(=O)\C=C/[C@]4(C)[C@H]3CC[C@]12C | NOMO1 | AUC of viability dose-response curve | 365 |
| CC(NCc1ccc2c(c1)[nH]/c(=N\C(=O)c1ccc(-c3cn[nH]c3)s1)n2CC(C)(C)O)C(C)(C)C (stereo not drawn) | NOMO1 | AUC of viability dose-response curve | 358 |
| O=C(O)C1CCCN(CCC=C(c2ccccc2)c2ccccc2)C1 (stereo not drawn) | NOMO1 | AUC of viability dose-response curve | 453 |
| CCOC(=O)[C@H](CCc1ccccc1)N[C@@H](C)C(=O)N1[C@H](C(=O)O)C[C@@H]2CCC[C@@H]21 | NOMO1 | AUC of viability dose-response curve | 449 |

Prompt: Please look at "Nc1cc(c(cc1S(=O)(N)=O)S(N)(=O)=O)C(/Cl)=C(/Cl)Cl" and tell me its recorded AUC of viability dose-response curve on NOMO1.
Completion: 399

Prompt: Give AUC of viability dose-response curve for "CCN(C)C(=O)Oc1cccc([C@H](C)N(C)C)c1" tested on NOMO1.
Completion: 468

Prompt: Using NOMO1 as the test system, report measured AUC of viability dose-response curve of "CC1(C)CC(O)CC(C)(C)N1[O]" .
Completion: 472

Prompt: State AUC of viability dose-response curve (NOMO1) of COc1ccc2c(c1OC)CN1CCc3cc4c(cc3C1C2)OCO4 (stereo not drawn) .
Completion: 330

====

Tested on: NOMO1
METHOD_SUMMARY: cell viability relative to DMSO control; higher = less cytotoxic
EXPERIMENTAL_CONTEXT: HPLM + 10% dialyzed FBS; 48 h; 15.4 µM
OBSERVABLE: cell viability (%)
Numeric answer only, unit % assumed.

| COMPOUND | cell viability (%) |
| --- | --- |
| CC(C)(C)NC(=O)[C@@H]1CN(Cc2cccnc2)CCN1C[C@@H](O)C[C@@H](Cc1ccccc1)C(=O)N[C@H]1c2ccccc2C[C@H]1O.O=S(=O)(O)O | 130 |
| O=[N+]([O-])c1cnc(Sc2nnc(O)n2-c2ccc3c(c2)OCCO3)s1 | 6.33 |
| N[C@@H](CC(=O)N1CCn2c(nnc2C(F)(F)F)C1)Cc1cc(F)c(F)cc1F | 94.9 |

Next compound, please.
Prompt: Fill in cell viability for C[S+]([O-])c1ccc(-c2nc(-c3ccc(F)cc3)c(-c3ccncc3)[nH]2)cc1 (centres undefined) tested with NOMO1.
Completion: 3.41

====

Test system: SEM cells
METHOD_SUMMARY: cell viability relative to DMSO control; higher = less cytotoxic
EXPERIMENTAL_CONTEXT: RPMI 5 mM glucose + 10% dialyzed FBS; 48 h; 1.71 µM
OBSERVABLE: cell viability (%)
Hi! Could you send only the number? It should be in %, unit omitted.

Answered examples (6):
| SMILES_STR | cell viability (%) |
| --- | --- |
| Cc1ccc(-c2ncn(-c3ccc(Nc4nccc(-c5cccc(N6CCOCC6)c5)n4)cc3)n2)cn1 | 4.65 |
| CO[C@H]1C[C@@H]2CC[C@@H](C)[C@@](O)(O2)C(=O)C(=O)N2CCCC[C@H]2C(=O)O[C@H]([C@H](C)C[C@@H]2CC[C@@H](OCCO)[C@H](OC)C2)CC(=O)[C@H](C)/C=C(/C)[C@@H](O)[C@@H](OC)C(=O)[C@H](C)C[C@H](C)\C=C/C=C\C=C/1C | 37 |
| CN[C@@H]1C[C@H]2O[C@@](C)([C@@H]1OC)n1c3ccccc3c3c4c(c5c6ccccc6n2c5c31)C(=O)N[C@H]4O | 5.6 |
| CC(C)(C)c1cc(C(=O)O)c(NC(=O)Nc2ccc3[nH]ncc3c2)s1 | 91 |
| NC(=O)Nc1cc(-c2ccc(CN3CCOCC3)cc2)sc1C(N)=O | 14.5 |
| O=C1CCc2ccc(OCCCCN3CCN(c4cccc(Cl)c4Cl)CC3)cc2N1 | 106 |

Prompt: Provide SEM cells cell viability reading for "O=c1[nH]cnc2c1ncn2[C@H]1CC[C@@H](CO)O1" .
Completion: 92.7

Prompt: Print SEM cells cell viability for "NC\1=N\C(=O)N(\C=C1)[C@H]\2[C@H](O)[C@H](O)C(=C2F)\CO" .
Completion: 51.8

====

Quick list: cell viability per entry.
Test system: SEM cells
METHOD_SUMMARY: cell viability relative to DMSO control; higher = less cytotoxic
EXPERIMENTAL_CONTEXT: RPMI 5 mM glucose + 10% dialyzed FBS; 48 h; 1.71 µM
State just the number; it will be interpreted in %.

Some solved entries appear below for comparison.
| COMPOUND | MEASUREMENT_UNIT | ENDPOINT_RESULT |
| --- | --- | --- |
| COc1cc2ncnc(Nc3cccc(Br)c3)c2cc1OC | % | 110 |
| CN(C)c1ccc2cc(C(=O)N[C@@H](CCCNC(=N)CCl)C(=O)NCc3ccccc3)ccc2c1 | % | 90 |
| C[C@@H]1C[C@H]2[C@@H]3CC\C4=C\C(=O)\C=C/[C@]4(C)[C@@]3(Cl)[C@@H](O)C[C@]2(C)[C@@]1(OC(=O)C5=CC=CO5)C(=O)CCl | % | 44.7 |

Prompt: Supply cell viability value. Item: CC(C)NCC(O)c1ccc(NS(C)(=O)=O)cc1 (centres undefined)
Completion: 106

====

Test system: P12-Ichikawa
METHOD_SUMMARY: cell viability relative to DMSO control; higher = less cytotoxic
EXPERIMENTAL_CONTEXT: RPMI 5 mM glucose + 10% FBS; 48 h; 0.0211 µM
OBSERVABLE: cell viability (%)
A number alone suffices; assume %.

| MOLECULE | MEASUREMENT_UNIT | cell viability |
| --- | --- | --- |
| CCNC(=O)[C@H]1O[C@@H](n2cnc3c(N)nc(NCCc4ccc(CCC(=O)O)cc4)nc32)[C@H](O)[C@@H]1O | % | 102 |
| CN(C)c1ccc2cc(C(=O)N[C@@H](CCCNC(=N)CCl)C(=O)NCc3ccccc3)ccc2c1 | % | 115 |
| COc1cccc2c1C(=O)c1c(O)c3c(c(O)c1C2=O)C[C@@](O)(C(C)=O)C[C@@H]3O[C@H]1C[C@H](N)[C@H](O)[C@H](C)O1 | % | 104 |
| CC(C)NCC(O)COc1ccc(CCOCC2CC2)cc1 (stereo not drawn) | % | 121 |
| CNCC(O)C(O)C(O)C(O)CO.O=C(O)c1ccc(-c2cc3cccnc3c(-c3ccc4nonc4c3)n2)cc1 | % | 107 |

Prompt: Look up and report measured cell viability for this entry: "CN[S+](=O)([O-])CCc1ccc2[nH]cc(C3CCN(C)CC3)c2c1"
Completion: 96

Prompt: Entry "CN(C)CCCNC(=O)c1ccc(-c2cc(O)c3ncccc3c2)cc1" needs its cell viability filled in; supply it.
Completion: 104

Prompt: Give reported cell viability value for "Cc1[nH]c(/C=C2\C(=O)Nc3ccc([S+](=O)([O-])Cc4c(Cl)cccc4Cl)cc32)c(C)c1C(=O)N1CCC[C@@H]1CN1CCCC1"
Completion: 99.7

====

Test system: NOMO1
METHOD_SUMMARY: cell viability relative to DMSO control; higher = less cytotoxic
EXPERIMENTAL_CONTEXT: RPMI 5 mM glucose + 10% dialyzed FBS; 48 h; 0.00234 µM
// cell viability lookup, one value per entry
Hi! Could you send only the number? It should be in %, unit omitted.

| COMPOUND | cell viability / % |
| --- | --- |
| COc1ccc2c(c1OC)CN1CCc3cc4c(cc3C1C2)OCO4 (stereo not given) | 92.7 |
| COC1(C[S+]([O-])c2ccccc2)CCN(CCc2c[nH]c3ccc(F)cc23)CC1 (stereo not given) | 99.8 |
| O=C1N\2CCC3=C([NH]C4=C3C=CC=C4)C2=N/C5=CC=CC=C15 | 121 |

Prompt: Please report cell viability for the following compound: "OCCCNc1cc(-c2ccnc(Nc3cccc(Cl)c3)n2)ccn1"
Completion: 95.8

Prompt: Please report cell viability for the following compound: "CC(C)[C@H](CO)Nc1nc(Nc2cccc(Cl)c2)c2ncn(C(C)C)c2n1"
Completion: 124

====

Test system: SEM cells
METHOD_SUMMARY: cell viability relative to DMSO control; higher = less cytotoxic
EXPERIMENTAL_CONTEXT: RPMI 5 mM glucose + 10% dialyzed FBS; 48 h; 1.71 µM
The compounds listed here are annotated with their cell viability.

Prompt: Using the record for "CC(=O)[C@H]1CC[C@H]2[C@@H]3CCC4=CC(=O)CC[C@]4(C)[C@H]3CC[C@]12C" , state its measured cell viability.
Completion: 117%
